Entry source: ChEMBL document CHEMBL3045496

- System: Epilachna
- assay-method-text: Antifeedant activity against third-instar Epilachna paenulata measured assessed per cm2 leaf disk after 24 hr by leaf disk choice test
- Type: functional
Reported ED50 is given for each of the following molecules.
Please respond with the number in µg and leave the unit unwritten.

molecule	numeric-readout
O=c1c(O)c(-c2ccc(O)c(O)c2)oc2cc(O)cc(O)c12	9.26

Query: Dear colleague, please send me the reported ED50 for Oc1cc(O)c2c(c1)OC(c1ccc(O)c(O)c1)C(O)C2 (stereo not given) when you can.
Result: 47.6

Query: Entry C/C=C(\C)C(=O)O[C@H]1C[C@@H](OC(C)=O)[C@@]2(C(=O)OC)CO[C@H]3[C@@H](O)[C@@](C)([C@]45O[C@@]4(C)[C@@H]4C[C@H]5O[C@@H]5OC=C[C@@]54O)[C@H]4[C@]1(CO[C@]4(O)C(=O)OC)[C@@H]32 needs its ED50 filled in; supply it.
Result: 0.59

Query: For the molecule O=C1C[C@@H](c2ccccc2)Oc2cc(O)cc(O)c21 , report ED50.
Result: 7.98

Query: Write down ED50 measured for item O=C1C[C@@H](c2ccc(O)cc2)Oc2cc(O)cc(O)c21
Result: 160.15
